- TEST PROTOCOL: Therapeutic index, ratio of CC50 for HEp2 to EC50 for RSV long A
- CONDITION: human, HEp2 cells; read-out: Ratio CC50/EC50
VALUE TYPE: selectivity ratio

>  <SMI>
COC(=O)c1ccc2c(c1)nc(Cn1c(=O)n(C(C)C)c3ccccc31)n2CCC(C)C

>  <RESULT VALUE>
0.15

$$$$
>  <SMI>
CC(C)CCn1c(Cn2c(=O)n(C(C)C)c3ccccc32)nc2cc(C(C)(C)N)ccc21

>  <RESULT VALUE>
4.71

$$$$
>  <SMI>
COC(=O)c1cccc2nc(Cn3c(=O)n(C(C)C)c4ccccc43)n(CCC(C)C)c12

>  <RESULT VALUE>
0.11

$$$$
>  <SMI>
CC(C)CCn1c(Cn2c(=O)n(C(C)C)c3ccccc32)nc2cc(CNC3CC3)ccc21

>  <RESULT VALUE>
47.3

$$$$
>  <SMI>
CC(C)CCn1c(Cn2c(=O)n(C(C)C)c3ccccc32)nc2ccc(CN(C)C)cc21

>  <RESULT VALUE>
0.026

$$$$
>  <SMI>
CC(C)CCn1c(Cn2c(=O)n(CC(=O)OC(C)(C)C)c3ccccc32)nc2cc(C#N)ccc21

>  <RESULT VALUE>
12.6

$$$$
>  <SMI>
CC(C)CCn1c(Cn2c(=O)n(C(C)C)c3ccccc32)nc2cc(-c3ncon3)ccc21

>  <RESULT VALUE>
10.3

$$$$
>  <SMI>
CC(C)CCn1c(Cn2c(=O)n(C(C)C)c3ccccc32)nc2cc(C(=O)O)ccc21

>  <RESULT VALUE>
0.07

$$$$
>  <SMI>
CC(C)CCn1c(Cn2c(=O)n(C(C)C)c3ccccc32)nc2ccc(C(N)=O)cc21

>  <RESULT VALUE>
0.406

$$$$
